molecular target: T1, human TfR extracellular domain with N-terminal His tag (human, UniProt P02786 89-760); assay: SPR, TfR captured by anti-His, Fab injected;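 further: single cycle kinetics with a Fab dilution series, fitted by a one-to-one Langmuir model or a steady state model, KD taken as koff over kon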
T1 construct: Biotinylated in some assays; also called huTfR; HuTfR
T1 sequence (P02786 89-760 G142S): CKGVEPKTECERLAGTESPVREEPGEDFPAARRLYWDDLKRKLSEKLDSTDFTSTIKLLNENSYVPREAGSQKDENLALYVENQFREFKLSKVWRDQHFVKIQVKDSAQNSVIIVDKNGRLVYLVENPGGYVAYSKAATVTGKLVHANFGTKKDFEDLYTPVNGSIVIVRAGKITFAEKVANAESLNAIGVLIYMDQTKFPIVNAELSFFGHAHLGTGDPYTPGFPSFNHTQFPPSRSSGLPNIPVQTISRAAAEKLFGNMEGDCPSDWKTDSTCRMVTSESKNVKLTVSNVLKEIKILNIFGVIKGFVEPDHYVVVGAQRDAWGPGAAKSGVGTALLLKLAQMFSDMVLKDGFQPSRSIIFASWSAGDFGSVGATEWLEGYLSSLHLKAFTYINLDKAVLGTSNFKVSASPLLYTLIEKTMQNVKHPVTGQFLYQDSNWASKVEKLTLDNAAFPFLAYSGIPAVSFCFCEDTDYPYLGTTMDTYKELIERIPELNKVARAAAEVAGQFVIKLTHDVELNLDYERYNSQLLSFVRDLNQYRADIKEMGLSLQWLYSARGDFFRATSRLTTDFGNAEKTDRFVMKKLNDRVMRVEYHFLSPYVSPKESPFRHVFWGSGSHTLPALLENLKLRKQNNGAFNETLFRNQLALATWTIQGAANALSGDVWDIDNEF
experimental endpoint: pKd
The read-out pKd is expressed as -log10 of concentration in moles per litre.

[
  {
    "binder": "Hu7A4.v5.Fab (Fab, V domains shown, Fab) VH: EVQLVQSGAEVKKPGASVKVSCKASGYTFTDYAMHWVRQAPGQGLEWMGGISTYFGRTNYNQKFKGRVTMTRDTSISTAYMELSRLRSDDTAVYYCARGLSGNYVMDYWGQGTTVTVSS VL: DIVMTQSPDSLAVSLGERATINCRASESVDSYGNSFMHWYQQKPGQPPKLLIYRASNLESGIPDRFSGSGSGTDFTLTISSLQAEDVAVYYCQQSNEGPPTFGQGTKLEIK",
    "pKd": 9.16
  }
]

// switching to the query binder
query: Would you kindly share the measured pKd for Hu15G11.v5.Fab (Fab, V domains shown, Fab) VH: EVQLVQSGAEVKKPGASVKVSCKASGYTFTSYWMHWVRQAPGQRLEWIGEINPTNGRTNYIEKFKSRATLTVDKSASTAYMELSSLRSEDTAVYYCARGTRAYHYWGQGTMVTVSS VL: DIQMTQSPSSLSASVGDRVTITCRASDNLYSNLAWYQQKPGKSPKLLVYDATNLADGVPSRFSGSGSGTDYTLTISSLQPEDFATYYCQHFWGTPLTFGQGTKVEIK ?
result: 8.33

// data source = patent US20180057604A1
